Listing: growth of selected compounds
Test system: MALME-3M melanoma
Experiment: NCI-60 one-dose screen, 48 h (100 = growth as untreated, 0 = no growth, -100 = all killed)
Settings: 10 µM unless noted
This is part of a sample that, as a whole, favours compounds with a hit. Of some 83,000 tested, about 20% had one in any assay.
Numeric only. Scale: %

Solved cases (5 shown):
compound=O=C(Nc1ccc(Br)cc1)Nc1ccc(-c2ccc3c(c2)NC(=O)/C3=C\c2ccc[nH]2)cc1 observable=growth measurement_unit=% obs_value=61.6
compound=O=C(NN1C(=O)/C(=C/C=C/c2ccc([N+](=O)[O-])o2)SC1=S)c1ccncc1 observable=growth measurement_unit=% obs_value=-91.7
compound="N#CC1=C(c2cccs2)Nc2c(c(-c3ccccc3)nn2-c2ccccc2)C12C(=O)Nc1ccc(Cl)cc12 (centres undefined)" observable=growth measurement_unit=% obs_value=76.3
compound=FC(F)(F)c1cc2c(Cl)ncnc2n1CCC1CCOCC1 observable=growth measurement_unit=% obs_value=79.2
compound="Cc1cc(C(NC(=O)C2CC3(CC(Nc4cccc5c4C(=O)N(C4CCC(=O)NC4=O)C5=O)C3)C2)c2ccc3c(c2)OC(F)(F)O3)c(O)c2ncccc12 (centres undefined)" observable=growth measurement_unit=% obs_value=9.46

**Query** Any idea what growth was measured for O=C(CSc1nc2ccccc2c(=O)[nH]1)Nc1ccccc1C(=O)O ?
**Result** 79.4

**Query** Any idea what growth was measured for CC(C)(C)C(=O)C1CC(C#N)=C2C=Cc3c(ccc4ccccc34)N21 (centres undefined) ?
**Result** 102

**Query** Any idea what growth was measured for COc1ccc(NC(=O)CSc2nnc(-c3ccc(-c4nc5ccc(Cl)cc5[nH]4)cc3)o2)cc1 ?
**Result** 0.449

**Query** Any idea what growth was measured for CN(C)CCCc1ccc(Nc2cnn(C)c(=O)c2Cl)cc1 ?
**Result** 88.8

**Query** Any idea what growth was measured for CCOc1ccccc1NC(=O)N/C(N)=N/c1nc2ccccc2s1 ?
**Result** 42

**Query** Any idea what growth was measured for CCOc1ccccc1[C@H]1C(C(=O)c2ccc(Cl)cc2)C2(N[C@@H]1c1ccccc1)C(=O)Nc1ccc(Br)cc12 (some centres undefined) ?
**Result** -15

**Query** Any idea what growth was measured for COc1ccc(NC(=O)Nc2nc3ccc([N+](=O)[O-])cc3s2)cc1 ?
**Result** -1.52

**Query** Any idea what growth was measured for COc1ccc2[nH]c(O)c(N=Nc3nc(-c4ccc(Cl)cc4)cs3)c2c1 ?
**Result** -63.5

====

Tested on: HT29 colon
Experiment: NCI-60 one-dose screen, 48 h (100 = growth as untreated, 0 = no growth, -100 = all killed)
Settings: 10 µM unless noted
Compounds without any hit were thinned out: in the full panel of roughly 83,000, 20% have a hit.
observable: growth (%)
Numeric only. Scale: %

compound=CC(C)(C)c1cc(-c2cc(-c3ccccc3)[nH]c(=O)c2C#N)cc(C(C)(C)C)c1 tgt="HT29 colon" obs_value=88.8

Consider now this further compound.
**Query** Any idea what growth was measured for O=C(CSc1nc2ccccc2c(=O)[nH]1)NNC(=O)c1ccccc1Cl ?
**Result** 109

====

Listing: growth of selected compounds
Tested on: HOP-62 NSCLC
Experiment: NCI-60 one-dose screen, 48 h (100 = growth as untreated, 0 = no growth, -100 = all killed)
Conditions: 10 µM unless noted
This is part of a sample that, as a whole, favours compounds with a hit. Of some 83,000 tested, about 20% had one in any assay.
Numeric only. Scale: %

Solved cases (10 shown):
compound=COc1ccc2[nH]cc(-c3cc4nc(-c5cn(C)c6ncc(Br)cc56)cc(N)n4n3)c2c1 observable=growth obs_value=-50.2
compound=C=CC(=O)Nc1ccc(C(=O)/C=C/c2ccc(N(C)C)cc2)c(O)c1 observable=growth obs_value=10.1
compound="O=C(OCCOCCO)N(c1cccc(Br)c1)c1nc(SCCN2CCOCC2)nc2c1cnn2CC(Cl)c1ccc(Br)cc1 (stereo not drawn)" observable=growth obs_value=32.9
compound="CCCCNc1ccc2c3c(cccc13)C(=O)N(NCC(O)COc1ccc3c(C)cc(=O)oc3c1)C2=O (stereo not drawn)" observable=growth obs_value=97
compound=CC(C)C[C@H](NC(=O)CNC(=O)C[C@H]1O[C@@H]2OC3(C)CC[C@H]4[C@H](C)CC[C@@H]([C@H]1C)[C@@]24O3)B(O)O observable=growth obs_value=-3.39
compound=Nc1cc2ccccc2c(=O)n1NC(=O)c1ccccc1 observable=growth obs_value=103
compound=CC[C@@]12CC(C(=O)OC)=C3Nc4cc5c(cc4[C@@]34CCN(C[C@H]3O[C@H]31)[C@@H]24)[C@@H]1[C@H](O5)[C@@H](O)[C@@]2(CC)CC(C(=O)OC)=C3Nc4cc(O)ccc4[C@@]34CCN1[C@@H]24 observable=growth obs_value=-54.4
compound=NS(=O)(=O)c1ccc(Nc2nc(N/N=C/c3cc(Br)c(O)c(Br)c3)nc(Nc3ccccc3)n2)cc1 observable=growth obs_value=27
compound=CCCn1c(NC(=O)c2cccc(C(N)=O)c2)nc2cc(CN3CCCCC3)ccc21 observable=growth obs_value=95.8
compound=COc1cccc(-c2ccc(/C=N/NC(=O)c3[nH]c4ccc(Br)cc4c3-c3ccccc3)s2)c1 observable=growth obs_value=14.6

**Query** Any idea what growth was measured for COc1cc(C2CC(c3ccc(Cl)cc3)=Nc3c(N)nc(N)nc3N2)ccc1Oc1nc(Nc2ccc(F)cc2)nc(N(C)C)n1 (stereo not drawn) ?
**Result** 74.1

**Query** Any idea what growth was measured for Cc1cc(Cl)ccc1NC(=O)Nc1ccc(-c2ccc3c(c2)NC(=O)/C3=C\c2ccc[nH]2)cc1 ?
**Result** 99.6

**Query** Any idea what growth was measured for Cc1ccc(NC(=O)N/N=C/c2c[nH]c3ccccc23)c(C)c1 ?
**Result** 34.4

**Query** Any idea what growth was measured for c1n[nH]cc1-c1nc2ccc3[nH]ncc3c2c2c1CC1(CCOCC1)CC2 ?
**Result** 55.5

**Query** Any idea what growth was measured for Cc1ccc(S(=O)(=O)N(CCn2ccnc2[N+](=O)[O-])CCn2ccnc2[N+](=O)[O-])cc1 ?
**Result** 108

**Query** Any idea what growth was measured for CN(C(=O)CN1C(=O)/C(=C/c2ccco2)SC1=S)C1CCS(=O)(=O)C1 (stereo not drawn) ?
**Result** 123

**Query** Any idea what growth was measured for CC1=C(C(=O)Nc2ccccc2)C(c2cccc(Cl)c2Cl)n2c(nc3ccccc32)N1 (stereo not drawn) ?
**Result** 88.6

**Query** Any idea what growth was measured for COc1ccc(NC(=O)Cn2c(/C=C/c3cccc(Br)c3)nc3ccccc3c2=O)cc1 ?
**Result** 2.11

Value source: PubChem BioAssay (NCI)
